# Ki per record follows
Target: Kappa-type opioid receptor (Cavia porcellus, UniProt P41144)
Sequence (P41144 whole entry): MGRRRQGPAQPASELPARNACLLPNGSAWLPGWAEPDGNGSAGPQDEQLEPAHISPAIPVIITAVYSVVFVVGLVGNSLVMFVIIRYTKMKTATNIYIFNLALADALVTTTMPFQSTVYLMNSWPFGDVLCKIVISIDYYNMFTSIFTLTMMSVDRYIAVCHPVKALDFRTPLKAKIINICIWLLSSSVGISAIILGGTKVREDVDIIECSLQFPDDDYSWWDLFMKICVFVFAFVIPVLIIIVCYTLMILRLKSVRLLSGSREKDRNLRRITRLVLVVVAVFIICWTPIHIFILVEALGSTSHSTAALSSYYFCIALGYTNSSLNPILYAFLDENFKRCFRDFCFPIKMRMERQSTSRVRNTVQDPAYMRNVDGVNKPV
Assay: Binding affinity at kappa opioid receptor 1 in guinea pig brain by [3H]U-69593 displacement.

- SMILES: "CCCO[C@@]12Cc3c(n(CCC)c4ccccc34)[C@@H]3Oc4c(O)ccc5c4[C@@]31CCN(CC1CC1)[C@@H]2C5"
  STUDY TARGET: "Kappa-type opioid receptor (Cavia porcellus, UniProt P41144)"
  Ki: "3.1 nM"
- SMILES: "C=CCN1CC[C@]23c4c5ccc(O)c4O[C@H]2c2[nH]c4ccccc4c2C[C@@]3(OCC)[C@H]1C5"
  STUDY TARGET: "Kappa-type opioid receptor (Cavia porcellus, UniProt P41144)"
  Ki: "349 nM"
- SMILES: "CC(C)CCO[C@@]12Cc3c([nH]c4ccccc34)[C@]3(C)Oc4c(O)ccc5c4[C@@]31CCN(C)[C@@H]2C5"
  STUDY TARGET: "Kappa-type opioid receptor (Cavia porcellus, UniProt P41144)"
  Ki: "1260 nM"
- SMILES: "CCO[C@@]12Cc3c([nH]c4ccccc34)[C@]3(C)Oc4c(O)ccc5c4[C@@]31CCN(C)[C@@H]2C5"
  STUDY TARGET: "Kappa-type opioid receptor (Cavia porcellus, UniProt P41144)"
  Ki: "725 nM"

====

Target: Kappa-type opioid receptor (Cavia porcellus, UniProt P41144)
Experiment: The ability of compound to inhibit [35S][…] binding in guinea pig caudate stimulated by U69,593 (Opioid receptor kappa 1) antagonist
Assay type: functional
pKi: −log10 of the molar value.

- SMILES: "C=CCN1CC[C@]23c4c5ccc(O)c4O[C@H]2c2[nH]c4ccccc4c2C[C@@]3(OCC)[C@H]1C5"
  pKi: "< 5.00"
- SMILES: "CCO[C@@]12Cc3c(oc4ccccc34)[C@@H]3Oc4c(O)ccc5c4[C@@]31CCN(CC1CC1)[C@@H]2C5"
  pKi: "< 5.00"
- SMILES: "CCO[C@@]12Cc3c([nH]c4ccccc34)[C@]3(C)Oc4c(O)ccc5c4C31CCN(CC1CC1)[C@@H]2C5"
  pKi: "< 5.00"

====

Biological target: UniProtKB P97266
Sequence (P97266 whole entry): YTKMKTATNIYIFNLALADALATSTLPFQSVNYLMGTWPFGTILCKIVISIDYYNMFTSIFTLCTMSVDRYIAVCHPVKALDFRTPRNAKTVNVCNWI
Test: The ability of compound to inhibit [35S][…] binding in guinea pig caudate stimulated by DAMGO (Opioid receptor mu 1) antagonist
pKi: −log10 of the molar value.
List of pKi values.

- SMILES: "CCO[C@@]12Cc3c([nH]c4ccccc34)[C@]3(C)Oc4c(O)ccc5c4C31CCN(CC1CC1)[C@@H]2C5"
  pKi: "< 5.00"
- SMILES: "C=CCN1CC[C@]23c4c5ccc(O)c4O[C@H]2c2[nH]c4ccccc4c2C[C@@]3(OCC)[C@H]1C5"
  pKi: "< 5.00"
- SMILES: "CCO[C@@]12Cc3c(oc4ccccc34)[C@@H]3Oc4c(O)ccc5c4[C@@]31CCN(CC1CC1)[C@@H]2C5"
  pKi: "< 5.00"

====

Biological target: Kappa-type opioid receptor (Cavia porcellus)
Assay: Binding affinity at kappa opioid receptor 1 in guinea pig brain by [3H]U-69593 displacement.
Ki values by entry

- SMILES: "CCCO[C@@]12Cc3c([nH]c4ccccc34)[C@]3(C)Oc4c(O)ccc5c4[C@@]31CCN(C)[C@@H]2C5"
  Ki, µM: 0.556
- SMILES: "CCO[C@@]12Cc3c([nH]c4ccccc34)[C@]3(C)Oc4c(O)ccc5c4C31CCN(CC1CC1)[C@@H]2C5"
  Ki, µM: 0.134
- SMILES: "CCO[C@@]12Cc3c(oc4ccccc34)[C@@H]3Oc4c(O)ccc5c4[C@@]31CCN(CC1CC1)[C@@H]2C5"
  Ki, µM: 0.094
- SMILES: "C=CCN1CC[C@]23c4c5ccc(O)c4O[C@H]2c2c(c4ccccc4n2C)C[C@@]3(OC)[C@H]1C5"
  Ki, µM: 0.149
